- Tested target: UniProtKB P48730
- Experimental details: Whole Cell nBRET CSNK1D Binding Assay
- Measurement parameters: living CHO cells stably expressing human CSNK1D tagged with nanoluciferase; NanoBret tracer 130 nM; 2 hours at 37 C
Recorded metric: IC50

# Molecule, Recorded metric, Result
measured = [
    ("Fc1ccc(-c2nn3c(c2-c2ccnc4[nH]ncc24)C[C@H]2C[C@H]23)cc1 [Example 267]", "IC50", "131 nM"),
    ("Cc1cc(-c2c(-c3ccc(Cl)c(F)c3)nn3c2COCC3)c2cn[nH]c2n1 [Example 73]", "IC50", "569 nM"),
    ("CC1(C)Cn2nc(-c3ccc(F)cn3)c(-c3cc(C4CC4)nc4[nH]ncc34)c2CO1 [Example 155]", "IC50", "172 nM"),
    ("Cc1nc2[nH]ncc2c(-c2c(-c3ccc(F)cn3)nn3c2CC2(C3)CC2(F)F)c1F (single isomer, unassigned) [Example 264]", "IC50", "20 nM"),
    ("Cc1nc(-c2c(-c3ccc(F)cc3)nn3c2CCC3)c2cn[nH]c2n1 [Example 225]", "IC50", "88 nM"),
    ("[2H]C([2H])([2H])[C@@]1(C(F)(F)F)Cn2nc(-c3ccc(F)cn3)c(-c3cc(C)nc4[nH]nc(C)c34)c2CO1 (single isomer, unassigned) [Example 429]", "IC50", "2230 nM"),
    ("Fc1ccc(-c2nn3c(c2-c2ccnc4[nH]ncc24)COCC32CC2)cc1 [Example 106]", "IC50", "137 nM"),
    ("Cc1cc(-c2c(-c3ccc(F)cn3)nn3c2OC(C)(C)C3)c2cn[nH]c2n1 [Example 368]", "IC50", "55 nM"),
    ("Cc1cc(-c2c(-c3ccc(F)cn3)nn3c2CO[C@@](C)(C(F)(F)F)C3)c2cn[nH]c2n1 (single isomer, unassigned) [Example 180]", "IC50", "252 nM"),
    ("Cc1nc(-c2nn3c(c2-c2ccnc4[nH]ncc24)COC(C)(C)C3)ccc1Cl [Example 163]", "IC50", "1920 nM"),
    ("Cc1nc2[nH]nc(C)c2c(-c2c(-c3ccc(F)cn3)nn3c2CC2(C3)CC2(F)F)c1F (single isomer, unassigned) [Example 265]", "IC50", "37 nM"),
    ("COCC1(F)CCc2c(-c3c(F)c(C)nc4[nH]ncc34)c(-c3ccc(F)cn3)nn2C1 (single isomer, unassigned) [Example 309]", "IC50", "1320 nM"),
    ("O=C(Nc1cc(-c2c(-c3ccc(F)cn3)nn3c2OCC2(CC2)C3)ccn1)C1CC1 [Example 456]", "IC50", "7 nM"),
    ("Cc1cc(-c2c(-c3ncc(F)cc3F)nn3c2CCCC3)c2cn[nH]c2n1 [Example 37]", "IC50", "210 nM"),
    ("Cc1cc(-c2c(-c3ccc(F)cn3)nn3c2CC(C)(C)C3)c2cc[nH]c2n1 [Example 235]", "IC50", "8 nM"),
]

---

- Tested target: human CSNK1D (Homo sapiens, UniProt P48730)
- Sequence (P48730 whole entry): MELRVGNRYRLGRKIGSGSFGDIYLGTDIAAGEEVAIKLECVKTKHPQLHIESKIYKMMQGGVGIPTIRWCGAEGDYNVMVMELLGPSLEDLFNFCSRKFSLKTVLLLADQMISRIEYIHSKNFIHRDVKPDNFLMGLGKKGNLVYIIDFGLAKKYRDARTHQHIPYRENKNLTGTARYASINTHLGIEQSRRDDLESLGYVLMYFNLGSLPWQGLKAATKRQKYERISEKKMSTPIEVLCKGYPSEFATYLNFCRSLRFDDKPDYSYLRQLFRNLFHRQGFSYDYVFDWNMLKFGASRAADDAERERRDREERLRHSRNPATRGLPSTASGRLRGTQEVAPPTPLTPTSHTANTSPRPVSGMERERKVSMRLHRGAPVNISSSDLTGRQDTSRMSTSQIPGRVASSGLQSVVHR
- Experimental details: Whole Cell nBRET CSNK1D Binding Assay
- Measurement parameters: living CHO cells stably expressing human CSNK1D tagged with nanoluciferase; NanoBret tracer 130 nM; 2 hours at 37 C
pIC50: −log10 of the molar value.
Recorded metric: pIC50

# Compound, Recorded metric, Censoring operator, Readout number
measured = [
    ("Fc1ccc(-c2nn3c(c2-c2ccnc4[nH]ncc24)OCCC3)cc1", "pIC50", "=", 7.82),
    ("CC1(C)Cn2nc(-c3ccc(F)cn3)c(-c3cc(N)n4nccc4c3)c2CO1", "pIC50", "=", 7.03),
    ("[2H]C([2H])([2H])[C@]1(C([2H])([2H])F)CCc2c(-c3c(F)cnc4[nH]ncc34)c(-c3ccc(F)cn3)nn2C1 (single isomer, unassigned)", "pIC50", "=", 7.62),
    ("Fc1ccc(-c2nn3c(c2-c2ccnc4[nH]ncc24)OCCC3)nc1", "pIC50", "=", 6.59),
    ("CC1(CF)CCc2c(-c3c(F)cnc4[nH]ncc34)c(-c3ccc(F)cn3)nn2C1 (single isomer, unassigned)", "pIC50", "=", 7.74),
    ("Cc1cc(-c2c(-c3ccc(F)cn3)nn3c2OC(C)CC3C)c2cn[nH]c2n1 (single isomer, unassigned)", "pIC50", "=", 5.75),
    ("CC1(C)Cn2nc(-c3ccc(F)cn3)c(-c3ccnc(C(F)F)c3)c2CO1", "pIC50", "=", 6.36),
    ("Fc1ccc(-c2nn3c(c2-c2ccnc4[nH]nc(Cl)c24)CC2(C3)CC2(F)F)nc1 (single isomer, unassigned) [Example 256]", "pIC50", "=", 6.93),
    ("Fc1ccc(-c2nn3c(c2-c2ccnc4[nH]ncc24)OCC2(CC2)C3)nc1", "pIC50", "=", 7.62),
    ("Cc1cc(-c2c(-c3ccc(F)cc3)nn3c2OCC2(CC2)C3)c2cn[nH]c2n1", "pIC50", "=", 8.70),
    ("Cc1nc2[nH]nc(C)c2c(-c2c(-c3ccc(F)cn3)nn3c2CC[C@H]2[C@@H]3C2(F)F)c1F (single isomer, unassigned)", "pIC50", "=", 7.15),
    ("COC[C@]1(F)CCc2c(-c3cc(C)nc4[nH]ncc34)c(-c3ccc(F)cn3)nn2C1 (single isomer, unassigned) [Example 53]", "pIC50", "=", 7.51),
    ("Cc1n[nH]c2nc(C(F)F)cc(-c3c(-c4ccc(F)cc4)nn4c3COC(C(F)(F)F)C4)c12 (single isomer, unassigned) [Example 374]", "pIC50", "<", 5.00),
    ("FCC1Cn2nc(-c3ccc(F)cc3)c(-c3ccnc4[nH]ncc34)c2CO1 (single isomer, unassigned) [Example 104]", "pIC50", "=", 7.31),
    ("C[C@H]1n2nc(-c3ccc(F)cc3)c(-c3ccnc4[nH]ncc34)c2COC1(C)C (single isomer, unassigned)", "pIC50", "=", 7.27),
    ("Cc1cc(-c2c(-c3ccc(F)cc3)nn3c2CO[C@@H](C)C3)c2cn[nH]c2n1 (single isomer, unassigned)", "pIC50", "=", 7.47),
    ("CC1(C)Cn2nc(-c3ccc(F)cn3)c(-c3ccnc4[nH]nc(Br)c34)c2CO1", "pIC50", "=", 7.60),
    ("CCC(=O)Nc1cc(-c2c(-c3ccc(F)cn3)nn3c2OCCC3)ccn1", "pIC50", "=", 7.12),
    ("CC1(C)CCn2nc(-c3ccc(F)cc3)c(-c3ccnc4[nH]ncc34)c21", "pIC50", "=", 7.37),
    ("Cc1n[nH]c2nccc(-c3c(-c4ccc(F)cn4)nn4c3COC(C)(C(F)(F)F)C4)c12 (single isomer, unassigned)", "pIC50", "<", 5.00),
    ("C[C@H]1CCc2c(-c3ccnc4[nH]ncc34)c(-c3ccc(F)cn3)nn21", "pIC50", "=", 6.72),
    ("CC1(C)Cn2nc(-c3ncc(F)cc3F)c(-c3ccnc4[nH]ncc34)c2CO1", "pIC50", "=", 6.99),
    ("Cc1cc(-c2c(-c3ccc(F)cn3)nn3c2O[C@@H](C)C[C@H]3C)c2cn[nH]c2n1 (single isomer, unassigned)", "pIC50", "=", 6.60),
    ("Fc1ccc(-c2nn3c(c2-c2ccnc4[nH]c(C(F)F)cc24)COCC3)nc1", "pIC50", "<", 5.00),
    ("Cc1cc(-c2c(-c3ccc(F)cn3)nn3c2CO[C@H](C)C3)c2cn[nH]c2n1 (single isomer, unassigned)", "pIC50", "=", 6.79),
    ("C[C@H]1CCCc2c(-c3ccnc4[nH]ncc34)c(-c3ccc(F)cc3)nn21 (single isomer, unassigned)", "pIC50", "=", 7.39),
    ("Fc1ccc(-c2nn3c(c2-c2ccnc4[nH]ncc24)OCC2(C3)CC2(F)F)cc1 (single isomer, unassigned) [Example 476]", "pIC50", "=", 9.00),
    ("Cc1nc2cc(-c3c(-c4ccc(F)cn4)nn4c3COC(C)(C)C4)ccn2n1", "pIC50", "=", 5.02),
]

---

- Tested target: human CSNK1D (Homo sapiens)
- Experimental details: Whole Cell nBRET CSNK1D Binding Assay
- Measurement parameters: living CHO cells stably expressing human CSNK1D tagged with nanoluciferase; NanoBret tracer 130 nM; 2 hours at 37 C
Recorded metric: log10 IC50 (log10 of the value in nM)

# Molecule, Tested target, Recorded metric, Readout number
rows = [
    ("Fc1ccc(-c2nn3c(c2-c2ccnc4[nH]ncc24)CCC3)nc1", "human CSNK1D (Homo sapiens)", "log10 IC50", 2.13),
    ("Cc1cc(-c2c(-c3cscn3)nn3c2CCCC3)c2cn[nH]c2n1", "human CSNK1D (Homo sapiens)", "log10 IC50", 3.48),
    ("Cc1nc(-c2c(-c3ccc(F)cc3)nn3c2COC(C(F)(F)F)C3)c2cn[nH]c2n1 (single isomer, unassigned) [Example 376]", "human CSNK1D (Homo sapiens)", "log10 IC50", 1.87),
    ("CC1CCn2nc(-c3ccc(F)cn3)c(-c3ccnc4[nH]ncc34)c2O1 (single isomer, unassigned)", "human CSNK1D (Homo sapiens)", "log10 IC50", 1.77),
    ("Cc1cc(-c2c(-c3ccc(F)cc3)nn3c2C[C@@]2(C3)CC2(F)F)c2cn[nH]c2n1 (single isomer, unassigned)", "human CSNK1D (Homo sapiens)", "log10 IC50", 0.48),
    ("Cc1cc(-c2c(-c3ccc(F)cn3)nn3c2OCC2(CC2)C3)c2c(Cl)n[nH]c2n1", "human CSNK1D (Homo sapiens)", "log10 IC50", 1.04),
    ("Fc1ccc(-c2nn3c(c2-c2ccnc4cn[nH]c24)CCC3)nc1", "human CSNK1D (Homo sapiens)", "log10 IC50", 3.17),
]
